Tested on: Saccharomyces cerevisiae
experimental.protocol: Inhibition of yeast alpha-glucosidase at 1000 uM
Please use 1 whenever inhibition is not below 2%, and 0 whenever it is.

Sample answers from the record:
[
  {
    "structure.smiles.string": "OC[C@H]1NC[C@@H](O)[C@H](O)[C@@H]1O",
    "answer.label": 0
  },
  {
    "structure.smiles.string": "OC[C@H](O)[C@@H]1NC[C@@H]1O",
    "answer.label": 1
  },
  {
    "structure.smiles.string": "O=C1CC[C@H](O)[C@H]2[C@@H](O)CN12",
    "answer.label": 1
  },
  {
    "structure.smiles.string": "O[C@H]1CCCN2C[C@H](O)[C@H]12",
    "answer.label": 0
  }
]

Task: inhibition >= 2% for O[C@@H]1[C@H](O)[C@H]2[C@@H](O)CN2C[C@H]1O ?
Output: 0

---

target.or.test.system: Beta-galactosidase (Bos taurus) (UniProt Q58D55)
Sequence (Q58D55 whole entry): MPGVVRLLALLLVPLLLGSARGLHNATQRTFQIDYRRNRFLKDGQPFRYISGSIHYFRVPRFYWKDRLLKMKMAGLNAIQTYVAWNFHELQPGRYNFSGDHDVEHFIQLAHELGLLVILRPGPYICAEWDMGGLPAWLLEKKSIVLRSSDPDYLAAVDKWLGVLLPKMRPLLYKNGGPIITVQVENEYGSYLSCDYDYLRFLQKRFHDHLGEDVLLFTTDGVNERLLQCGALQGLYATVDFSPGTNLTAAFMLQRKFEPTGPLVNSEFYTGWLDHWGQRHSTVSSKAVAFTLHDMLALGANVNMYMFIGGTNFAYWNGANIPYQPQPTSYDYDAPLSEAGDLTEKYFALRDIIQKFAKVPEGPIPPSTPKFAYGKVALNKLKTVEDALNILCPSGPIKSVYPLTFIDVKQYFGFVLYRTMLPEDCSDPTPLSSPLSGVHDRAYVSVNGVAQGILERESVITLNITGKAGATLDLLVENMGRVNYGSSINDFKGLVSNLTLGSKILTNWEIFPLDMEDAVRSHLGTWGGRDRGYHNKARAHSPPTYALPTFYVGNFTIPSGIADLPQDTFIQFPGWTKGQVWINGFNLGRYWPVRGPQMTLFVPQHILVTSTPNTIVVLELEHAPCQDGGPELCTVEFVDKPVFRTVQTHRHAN
experimental.protocol: Inhibition of bovine liver beta-galactosidase at 1000 uM
Each entry below carries its reported inhibition.
The reply should be a number in %, with the unit left off.

Some molecules with recorded inhibition:
[
  {
    "structure.smiles.string": "OC[C@H]1NC[C@@H](O)[C@H](O)[C@@H]1O",
    "target.or.test.system": "Beta-galactosidase (Bos taurus) (UniProt Q58D55)",
    "assay.readout": "inhibition",
    "value.measured": 19.9
  },
  {
    "structure.smiles.string": "O=C1CC[C@H](O)[C@H]2[C@@H](O)CN12",
    "target.or.test.system": "Beta-galactosidase (Bos taurus) (UniProt Q58D55)",
    "assay.readout": "inhibition",
    "value.measured": 13.4
  },
  {
    "structure.smiles.string": "OC[C@H](O)[C@@H]1NC[C@@H]1O",
    "target.or.test.system": "Beta-galactosidase (Bos taurus) (UniProt Q58D55)",
    "assay.readout": "inhibition",
    "value.measured": 25.2
  },
  {
    "structure.smiles.string": "O[C@@H]1[C@H](O)[C@H]2[C@@H](O)CN2C[C@H]1O",
    "target.or.test.system": "Beta-galactosidase (Bos taurus) (UniProt Q58D55)",
    "assay.readout": "inhibition",
    "value.measured": 43.4
  }
]

Next, consider the following molecule.
Task: Which inhibition is listed for O[C@H]1CCCN2C[C@H](O)[C@H]12 ?
Output: 14

---

Each entry below carries its reported inhibition.
Species on record: Sus scrofa
experimental.protocol: Inhibition of porcine kidney alpha,alpha-trehalase at 1000 uM
The reply should be a number in %, with the unit left off.

[
  {
    "structure.smiles.string": "O[C@@H]1[C@H](O)[C@H]2[C@@H](O)CN2C[C@H]1O",
    "inhibition [%]": 9
  }
]

Task: Which inhibition is listed for O[C@H]1CCCN2C[C@H](O)[C@H]12 ?
Output: 1

Task: Which inhibition is listed for O=C1CC[C@H](O)[C@H]2[C@@H](O)CN12 ?
Output: 5.2

Task: Which inhibition is listed for OC[C@H]1NC[C@@H](O)[C@H](O)[C@@H]1O ?
Output: 2.1

Task: Which inhibition is listed for OC[C@H](O)[C@@H]1NC[C@@H]1O ?
Output: 5.8
